Items are presented alongside their recorded glycan array binding signal (z-score).
molecular target: Neu5Ac(a2-3)Gal(b1-3)GalNAc(b1-3)Gal(a1-4)Gal(b1-4)Glc; assay: glycan array binding signal (z-score within array); higher = stronger binding; conditions: glycan notation: IUPAC condensed, linker removed
About 410 targets per protein were measured; listed, in parts, are those with the strongest signals and a random draw of the rest.

Provide measured glycan array binding signal (z-score) value, entry: Pwp2 (Candida glabrata) (protein) MGSSHHHHHHSSGLVPRGSHMASKNPVELNNVCTFPNDYGRIPGFTVLVGRLGLLISASDYKELLRYPGAFLIATQDTMTTSPNFELTGFPFFTGLYGLTVFPLDLLVELRGYFVPPNSGQYTFTLSDSDDAAIIFLGNPSAFPCGDLQNWPKPSEEDITVTDHLFPSRTLYLIEGVAYPMRIAYYNGIGAGRLNAAFIDPSGTRHTNWEGYIWQYDPCSTCTYS
-0.307

Provide measured glycan array binding signal (z-score) value, entry: F17dG (Escherichia coli), Q47199 (protein) MTNFYKVFLAVFILVCCNISQAAVSFIGSTENDVGPSPGSYSRTHAMDNLPFVYNTGNNIGYQNANVWRISKGFCVGLDGKVDLPVVGSLDGQSIYGLTEEVGLLIWMGDTNYSRGTAMSGNSWENVFSGWCVGANTASTQGLSVRVTPVILKRNSSARYSVQKTSIGSIRMRPYNGSSAGSVQTTVNFSLNPFTLNDTVTSCRLLTPSAVNVSLAAISAGQLPSSGDEVVAGTTSLKLQCDAGVTVWATLTDATTPSNRSDILTLTGASTATGVGLRIYKNTDSTPLKFGPDSPVKGNENQWQLSTGTETSPSVRLYVKYVNTGEGINPGTVNGISTFTFSYQ
-0.399
